Tested on: HT29 colon
Test: NCI tumour cell line growth inhibition, 48 h
MEASURE: GI50

- CHEMICAL_SMILES: "C#CCNC(=O)CC[C@]1(C)[C@H]2CC[C@@H]3[C@@H]([C@@](C)(O)CCC=C(C)C)CC[C@@]3(C)[C@]2(C)CC[C@H]1C(=C)C"
  MEASURE: "GI50"
  REPORTED: "18.8 µM"
- CHEMICAL_SMILES: "CN(C)CCN=Cc1c2ccccc2c(=O)n2c1oc1ccccc12"
  MEASURE: "GI50"
  REPORTED: "4.56 µM"
- CHEMICAL_SMILES: "COc1cc2c3c(n(C)c(=O)c2cc1OC)-c1cc2c(cc1/C3=C\\CCCBr)OCO2"
  MEASURE: "GI50"
  REPORTED: "> 100 µM"
- CHEMICAL_SMILES: "Cc1cc(-c2nc(-c3ccc(OC(F)(F)F)cc3)no2)nn1Cc1ccnc(N2CCN(C3CC3)CC2)c1"
  MEASURE: "GI50"
  REPORTED: "5.26 µM"

###

Tested on: PC-3 prostate
Experiment: NCI tumour cell line growth inhibition, 48 h

- MOLECULE: "CC(C)(C)OC(=O)NC(Cc1cnc[nH]1)C(=O)N1CCCC1C(N)=O (stereo not drawn)"
  TARGET_OR_TEST_SYSTEM: "PC-3 prostate"
  TGI: "> 100 µM"
- MOLECULE: "COP1(=O)NCc2ncccc2O1 (stereo not drawn)"
  TARGET_OR_TEST_SYSTEM: "PC-3 prostate"
  TGI: "> 100 µM"
- MOLECULE: "CC(=O)O[C@H]1CC[C@@]2(C)C(=CC[C@@H]3[C@@H]2CC[C@]2(C)C(=N/O)/C(=C/c4ccc([N+](=O)[O-])cc4)C[C@@H]32)C1"
  TARGET_OR_TEST_SYSTEM: "PC-3 prostate"
  TGI: "> 100 µM"

###

Tested on: UACC-62 melanoma
Assay: NCI tumour cell line growth inhibition, 48 h
Where a SMILES comes first, the peptide text is derived from it. [ ]: non-standard residue; d: D form. The star is where a group is joined. ξ: configuration not given here. NMeF = CN[C@@H](Cc1ccccc1)C(=O)O; ξNMeV = CNC(C(=O)O)C(C)C; Boc = CC(C)(C)OC(=O)*; OBn = c1ccc(CO*)cc1
MEASURE: TGI (µM)

- COMPOUND: "OC(COc1cccc2ccccc12)CN1CCN(c2ccccc2)CC1 (stereo not given)"
  MEASURE_UNIT: "µM"
  COMPARISON_OPERATOR: "="
  REPORTED: 28.5
- COMPOUND: "COC(=O)NN=C(c1ccc(Cl)cc1)c1ccc(Cl)cc1"
  MEASURE_UNIT: "µM"
  COMPARISON_OPERATOR: ">"
  REPORTED: 100
- COMPOUND: "O=C(O)C#CCO"
  MEASURE_UNIT: "µM"
  COMPARISON_OPERATOR: ">"
  REPORTED: 100
- COMPOUND: "CCCN(CCC)CCCNC(=O)c1cc2c(-c3ccc(OC)c(OC)c3)nn(C)c2s1"
  MEASURE_UNIT: "µM"
  COMPARISON_OPERATOR: "="
  REPORTED: 33
- COMPOUND: "CCOP(=O)(OCC)C(Cc1ccc(OC)c(OC)c1)N=C(c1ccccc1)c1ccccc1 (stereo not given)"
  MEASURE_UNIT: "µM"
  COMPARISON_OPERATOR: ">"
  REPORTED: 100
- COMPOUND: "Cc1cc2c(cc1C)[n+](=O)c(C(=O)N1CCN(c3ccc([N+](=O)[O-])cc3)CC1)c(C)n2[O-]"
  MEASURE_UNIT: "µM"
  COMPARISON_OPERATOR: ">"
  REPORTED: 100
- COMPOUND: "C=C(C)[C@@H]1CCC2=C[C@@H](OC2=O)[C@@H](C(=C)C)C(=O)/C=C(/C)C(=O)C1"
  MEASURE_UNIT: "µM"
  COMPARISON_OPERATOR: "="
  REPORTED: 61.1
- COMPOUND: "Cc1ccc2c(c1)[nH]c(=S)n2C=C1C(=O)CC(C)(C)CC1=O"
  MEASURE_UNIT: "µM"
  COMPARISON_OPERATOR: ">"
  REPORTED: 100
- COMPOUND: "COc1ccc2c(=O)c3cc([N+](=O)[O-])ccc3n(C)c2c1"
  MEASURE_UNIT: "µM"
  COMPARISON_OPERATOR: ">"
  REPORTED: 100
- COMPOUND: "c1ccc2sc(C3(N4CCCCC4)CCCCCC3)cc2c1"
  MEASURE_UNIT: "µM"
  COMPARISON_OPERATOR: "="
  REPORTED: 80.4
- COMPOUND: "Cc1cc(-c2nc(-c3ccc(OC(F)(F)F)cc3)no2)nn1Cc1ccnc(N2CCN(C3CC3)CC2)c1"
  MEASURE_UNIT: "µM"
  COMPARISON_OPERATOR: ">"
  REPORTED: 49.1
- COMPOUND: "CCN(CC)C(=S)SC1CCOP(=O)(N(CCCl)CCCl)N1C (stereo not given)"
  MEASURE_UNIT: "µM"
  COMPARISON_OPERATOR: "="
  REPORTED: 17.3
- COMPOUND: "O=C(O)CCC1(Br)CCCCC(Br)C1=O (stereo not given)"
  MEASURE_UNIT: "µM"
  COMPARISON_OPERATOR: ">"
  REPORTED: 100
- COMPOUND: "Cc1cccc2c(N)c3cccc(C(=O)NCCN(C)C)c3nc12"
  MEASURE_UNIT: "µM"
  COMPARISON_OPERATOR: "="
  REPORTED: 0.227
- COMPOUND: "CN1c2ccccc2S(=O)(=O)n2c(COc3ccc(Cl)cc3)nnc21"
  MEASURE_UNIT: "µM"
  COMPARISON_OPERATOR: ">"
  REPORTED: 100
- COMPOUND: "COC(=O)N/N=C/c1oc(-c2ccccc2)c(-c2ccccc2)c1[N+](=O)[O-]"
  MEASURE_UNIT: "µM"
  COMPARISON_OPERATOR: ">"
  REPORTED: 100
- COMPOUND: "C=C(CS(=O)(=O)c1ccccc1)[P+](c1ccccc1)(c1ccccc1)c1ccccc1"
  MEASURE_UNIT: "µM"
  COMPARISON_OPERATOR: "="
  REPORTED: 56.9
- COMPOUND: "CC(=O)OC[C@]12CC[C@@H]([C@@H](C)C(N)=O)[C@@H]1[C@H]1CC[C@@H]3[C@@]4(C)CC[C@H](OC(C)=O)C(C)(C)[C@@H]4CC[C@@]3(C)[C@]1(C)CC2"
  MEASURE_UNIT: "µM"
  COMPARISON_OPERATOR: "="
  REPORTED: 19.5
- COMPOUND: "CC(C)C(C(=O)N1CCC[C@@H]1C(=O)OCc1ccccc1)N(C)C(=O)C(C(C)C)N(C)C(=O)[C@H](Cc1ccccc1)N(C)C(=O)[C@H](NC(=O)OC(C)(C)C)C(C)C (stereo not given in full) (Boc-[dV][NMeF][ξNMeV][ξNMeV][dP]-OBn)"
  MEASURE_UNIT: "µM"
  COMPARISON_OPERATOR: ">"
  REPORTED: 100
- COMPOUND: "CN(C)CCCNc1nccc(-c2c(-c3ccc(F)cc3)nn3cc(C(F)(F)F)ccc23)n1"
  MEASURE_UNIT: "µM"
  COMPARISON_OPERATOR: "="
  REPORTED: 11.1

###

System: PC-3 prostate
Assay: NCI tumour cell line growth inhibition, 48 h
Recorded TGI for the following compounds

- COMPOUND: "Cc1c[nH]c(C(=O)O)c1-c1ccc2c(-c3ccccc3)nc3ccccc3n12"
  TGI: "> 100 µM"
- COMPOUND: "CCOc1ccc(/C=C/[N+](=O)[O-])cc1"
  TGI: "33.7 µM"
- COMPOUND: "CCC1CC(=O)N(SCC(N)C(=O)O)C1=O (configuration not stated)"
  TGI: "> 100 µM"
- COMPOUND: "COc1cccc(C2C3=C(COC3=O)N(CCO)c3cc4c(cc32)OCCO4)c1 (configuration not stated)"
  TGI: "> 50 µM"
- COMPOUND: "Cc1ccc2c(c1)[nH]c(=S)n2C=C1C(=O)CC(C)(C)CC1=O"
  TGI: "> 100 µM"
- COMPOUND: "C#CCNC(=O)CC[C@]1(C)[C@H]2CC[C@@H]3[C@@H]([C@@](C)(O)CCC=C(C)C)CC[C@@]3(C)[C@]2(C)CC[C@H]1C(=C)C"
  TGI: "70 µM"
- COMPOUND: "COC(=O)Nc1nc2cc3c(cc2s1)OCCO3"
  TGI: "> 50 µM"
